Source: the supplement of paper PMC3334620

Target: Gcr1 (UniProt P07261)
Sequence: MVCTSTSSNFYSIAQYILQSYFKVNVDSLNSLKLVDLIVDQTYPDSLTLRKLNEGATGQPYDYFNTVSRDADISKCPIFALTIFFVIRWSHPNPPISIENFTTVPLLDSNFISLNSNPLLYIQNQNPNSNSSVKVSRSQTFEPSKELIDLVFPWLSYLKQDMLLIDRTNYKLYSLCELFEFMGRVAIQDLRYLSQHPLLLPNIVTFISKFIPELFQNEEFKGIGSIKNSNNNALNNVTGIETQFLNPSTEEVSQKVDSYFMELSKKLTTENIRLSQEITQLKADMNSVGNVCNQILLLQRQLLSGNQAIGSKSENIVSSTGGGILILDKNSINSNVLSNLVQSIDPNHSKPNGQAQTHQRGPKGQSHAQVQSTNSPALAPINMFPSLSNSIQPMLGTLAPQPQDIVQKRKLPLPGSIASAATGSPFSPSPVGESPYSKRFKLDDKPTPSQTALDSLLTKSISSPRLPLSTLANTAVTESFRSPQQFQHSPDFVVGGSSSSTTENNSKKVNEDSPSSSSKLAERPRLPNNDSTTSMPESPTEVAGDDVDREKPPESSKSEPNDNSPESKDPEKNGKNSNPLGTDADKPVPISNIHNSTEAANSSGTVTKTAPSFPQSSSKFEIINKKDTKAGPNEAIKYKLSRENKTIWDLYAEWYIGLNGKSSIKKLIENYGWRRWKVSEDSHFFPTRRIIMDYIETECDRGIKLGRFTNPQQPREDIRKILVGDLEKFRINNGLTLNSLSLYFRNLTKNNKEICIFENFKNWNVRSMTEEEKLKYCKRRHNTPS
Experiment: PBM E-score (8-mer binding enrichment) (E-score (-0.5 to 0.5)); higher = stronger / more preferred TF binding
Conditions: protein concentration: 100 nM; construct: GST-full length
Whole data set: some 33,000 sequences, median “E-score (-0.5 to 0.5)” near -0.011, cut for the highest 2% near 0.28. The sample as a whole holds a higher share of the highest values than the screen did.
assay metric: PBM E-score

residue string: CTGGAAGC
target or system: Gcr1 (UniProt P07261)
readout value: 0.45
//
residue string: ATGGAAGG
target or system: Gcr1 (UniProt P07261)
readout value: -0.201
//
residue string: AAATGCTT
target or system: Gcr1 (UniProt P07261)
readout value: -0.208
//
residue string: ATGGCACC
target or system: Gcr1 (UniProt P07261)
readout value: 0.201
//
residue string: GAACGCTA
target or system: Gcr1 (UniProt P07261)
readout value: -0.111
//
residue string: ATGGAAGA
target or system: Gcr1 (UniProt P07261)
readout value: -0.0302
//
residue string: CGGGCAGA
target or system: Gcr1 (UniProt P07261)
readout value: -0.0209
//
residue string: AGGGCATC
target or system: Gcr1 (UniProt P07261)
readout value: 0.129
//
residue string: ACGGCATC
target or system: Gcr1 (UniProt P07261)
readout value: 0.2
//
residue string: AAACTGGT
target or system: Gcr1 (UniProt P07261)
readout value: 0.178
//
residue string: CTGTATCC
target or system: Gcr1 (UniProt P07261)
readout value: 0.207
//
residue string: CGGTATCA
target or system: Gcr1 (UniProt P07261)
readout value: -0.0496
//
residue string: AGGTATCA
target or system: Gcr1 (UniProt P07261)
readout value: 0.0276
//
residue string: CTGGCACA
target or system: Gcr1 (UniProt P07261)
readout value: -0.0796
//
residue string: GAAGCCTC
target or system: Gcr1 (UniProt P07261)
readout value: 0.283
//
residue string: CGGGCATA
target or system: Gcr1 (UniProt P07261)
readout value: -0.232
//
residue string: CCGAACTC
target or system: Gcr1 (UniProt P07261)
readout value: -0.0172
//
residue string: CAACTCAA
target or system: Gcr1 (UniProt P07261)
readout value: 0.0769
//
residue string: CTGGAAGA
target or system: Gcr1 (UniProt P07261)
readout value: 0.0722
//
residue string: TAAAGAGA
target or system: Gcr1 (UniProt P07261)
readout value: 0.0201
//
residue string: CAAGCCTC
target or system: Gcr1 (UniProt P07261)
readout value: -0.0336
//
residue string: GAAGCCAA
target or system: Gcr1 (UniProt P07261)
readout value: 0.29
